experimental_system: Protein deacetylase HDAC6 (Homo sapiens) (UniProt Q9UBN7)
Sequence (Q9UBN7 whole entry): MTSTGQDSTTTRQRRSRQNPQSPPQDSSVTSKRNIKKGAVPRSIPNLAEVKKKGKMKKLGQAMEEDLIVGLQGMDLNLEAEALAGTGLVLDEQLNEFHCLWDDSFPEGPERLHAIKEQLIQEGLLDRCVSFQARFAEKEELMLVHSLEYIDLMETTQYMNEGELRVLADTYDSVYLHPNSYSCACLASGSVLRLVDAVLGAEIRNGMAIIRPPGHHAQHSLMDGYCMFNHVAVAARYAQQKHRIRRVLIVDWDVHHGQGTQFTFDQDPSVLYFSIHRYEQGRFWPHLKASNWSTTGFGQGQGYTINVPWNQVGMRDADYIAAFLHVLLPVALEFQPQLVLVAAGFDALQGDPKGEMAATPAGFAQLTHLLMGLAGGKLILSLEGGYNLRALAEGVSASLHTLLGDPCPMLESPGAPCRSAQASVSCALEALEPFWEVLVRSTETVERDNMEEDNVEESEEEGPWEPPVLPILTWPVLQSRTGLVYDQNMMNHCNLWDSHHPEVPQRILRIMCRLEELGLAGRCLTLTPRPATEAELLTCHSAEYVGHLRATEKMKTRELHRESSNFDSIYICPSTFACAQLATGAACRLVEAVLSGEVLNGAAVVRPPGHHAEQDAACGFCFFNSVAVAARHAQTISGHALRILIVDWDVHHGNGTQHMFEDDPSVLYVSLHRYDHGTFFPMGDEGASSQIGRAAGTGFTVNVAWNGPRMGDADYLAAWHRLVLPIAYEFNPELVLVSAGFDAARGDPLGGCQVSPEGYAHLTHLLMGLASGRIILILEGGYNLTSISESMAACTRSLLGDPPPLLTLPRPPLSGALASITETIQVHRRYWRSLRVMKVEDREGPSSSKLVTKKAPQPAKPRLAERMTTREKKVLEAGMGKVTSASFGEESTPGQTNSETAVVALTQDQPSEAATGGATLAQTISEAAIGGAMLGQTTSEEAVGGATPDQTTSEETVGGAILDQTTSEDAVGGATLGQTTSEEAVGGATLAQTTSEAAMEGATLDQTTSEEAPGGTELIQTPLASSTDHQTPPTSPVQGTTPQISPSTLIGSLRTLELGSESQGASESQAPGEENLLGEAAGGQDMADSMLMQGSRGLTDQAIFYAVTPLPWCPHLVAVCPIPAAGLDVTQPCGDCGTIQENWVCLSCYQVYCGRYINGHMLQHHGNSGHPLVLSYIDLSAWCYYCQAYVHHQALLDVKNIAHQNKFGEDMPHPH
measurement_description: Inhibition of HDAC6 in human NAMALVA cells assessed as increase in acetylated alpha-tubulin expression at IC50 measured after 48 hrs by Western blot analysis
Type: cell-based
Activity calls are given as the source filed them. The rule behind the calls is not given here.
endpoint: inhibition

INSERT INTO assay_data (chemical_structure, experimental_system, endpoint, value) VALUES
  ('O=C(/C=C/c1ccc(NC(=O)Nc2ccccc2)cc1)NO', 'Protein deacetylase HDAC6 (Homo sapiens) (UniProt Q9UBN7)', 'inhibition', 'Active'),
  ('COc1ccc(NC(=O)Nc2ccc(/C=C/C(=O)NO)cc2)cc1', 'Protein deacetylase HDAC6 (Homo sapiens) (UniProt Q9UBN7)', 'inhibition', 'Active'),
  ('O=C(/C=C/c1ccc(NC(=O)Nc2ccc([N+](=O)[O-])cc2)cc1)NO', 'Protein deacetylase HDAC6 (Homo sapiens) (UniProt Q9UBN7)', 'inhibition', 'Active'),
  ('O=C(/C=C/c1ccc(NC(=O)Nc2ccc(Cl)cc2)cc1)NO', 'Protein deacetylase HDAC6 (Homo sapiens) (UniProt Q9UBN7)', 'inhibition', 'Active');

---

Test system: NAMALVA
measurement_description: Induction of apoptosis in human NAMALVA cells assessed as early apoptotic cells at 0.5 times IC50 measured after 48 hrs by Annexin V-FITC/7AAD staining based flow cytometry (reference value: 5.07%)
Assay type: functional
Quick reference: Activity of the listed items.
Give a bare numeral; the unit % is implied.

INSERT INTO measurements (chemical_structure, endpoint, value) VALUES
  ('O=C(/C=C/c1ccc(NC(=O)Nc2ccc([N+](=O)[O-])cc2)cc1)NO', 'Activity', 10.1),
  ('O=C(/C=C/c1ccc(NC(=O)Nc2ccccc2)cc1)NO', 'Activity', 12.4),
  ('O=C(/C=C/c1ccc(NC(=O)Nc2ccc(Cl)cc2)cc1)NO', 'Activity', 17.9);

Now let's try a different one.
**Q:** I'd like to know its Activity. The compound in question is `COc1ccc(NC(=O)Nc2ccc(/C=C/C(=O)NO)cc2)cc1`
**A:** 10.2

---

experimental_system: Histone deacetylase 1 (Homo sapiens, UniProt Q13547)
Sequence (Q13547 whole entry, the tested form may be a part): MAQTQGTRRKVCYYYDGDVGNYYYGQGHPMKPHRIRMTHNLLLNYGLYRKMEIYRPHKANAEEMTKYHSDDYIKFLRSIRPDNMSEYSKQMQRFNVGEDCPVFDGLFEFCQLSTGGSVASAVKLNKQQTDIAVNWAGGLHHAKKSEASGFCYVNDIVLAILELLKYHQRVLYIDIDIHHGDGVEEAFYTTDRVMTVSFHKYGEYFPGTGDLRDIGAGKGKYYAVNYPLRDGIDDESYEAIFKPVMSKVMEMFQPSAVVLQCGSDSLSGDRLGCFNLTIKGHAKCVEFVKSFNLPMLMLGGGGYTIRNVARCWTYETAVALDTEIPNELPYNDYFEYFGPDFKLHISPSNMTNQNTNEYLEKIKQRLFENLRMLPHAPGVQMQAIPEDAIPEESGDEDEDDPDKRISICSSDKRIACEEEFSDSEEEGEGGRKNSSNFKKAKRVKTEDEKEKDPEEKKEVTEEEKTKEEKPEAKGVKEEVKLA
measurement_description: Inhibition of recombinant human full-length C-terminal FLAG/His-tagged HDAC1 (1 to 482 residues) expressed in baculovirus infected Sf9 insect cells using RHKK(Ac)AMC as substrate preincubated for 5 to 10 mins followed by substrate addition and measured after 2 hrs by fluorescence assay
endpoint: IC50 (µM)

INSERT INTO measurements (chemical_structure, experimental_system, endpoint, value) VALUES
  ('O=C(CCc1ccc(NC(=O)Nc2ccc(Cl)cc2)cc1)NO', 'Histone deacetylase 1 (Homo sapiens, UniProt Q13547)', 'IC50', 0.941),
  ('O=C(Nc1ccc(Cl)cc1)Nc1ccc(C(=O)NO)cc1', 'Histone deacetylase 1 (Homo sapiens, UniProt Q13547)', 'IC50', 1.32);

The measured values listed here are drawn from ChEMBL document CHEMBL4706706.
